Below, each entry is listed with its recorded growth.
Test system: HCT-15 colon
experimental details: NCI-60 one-dose screen, 48 h (100 = growth as untreated, 0 = no growth, -100 = all killed)
experimental setup: 10 µM
Description: Growth inhibition of the HCT-15 human tumor cell line is measured as a screen for anti-cancer activity. Cells are grown in 96 well plates and exposed to the test compound for 48 hours. Compounds are tested at a single concentration, which is 10^-5 M for most compounds. The reported endpoint is percent growth (GI% or GIPRCNT), where numbers from 0 - 100% represent growth inhibition, and numbers from -100% - 0 represent cell death. For example, a value of 40 represents 60% growth inhibition. […]
The panel holds about 83,000 compounds, 20% with a hit somewhere; the sample as a whole holds those more often.
Give the value in % but do not write % after it.

Would you mind telling me what growth value was observed for C#CC(C)(O)c1ccc(Cl)cc1 (stereo unspecified) ? 98.4

Item: `CCOc1ccc(Br)cc1/C=N\N=C\c1cc(Br)ccc1OCC` 109

Item: `Nc1nc(N)c2cc(S(=O)(=O)c3cccc(C(F)(F)F)c3)ccc2n1` 33.2

Item: `CC1(C)Nc2cccc3c(N=Nc4ccc(N=Nc5ccccc5)c5ccccc45)ccc(c23)N1` 77.5

Item: `O=S(=O)(Cc1ccccc1)c1ccccc1` 102

Item: `COC(=O)c1ccc(NC(=O)CCl)cc1` 61.7

====

Test system: HS 578T breast
experimental details: NCI-60 one-dose screen, 48 h
experimental setup: 10 µM
Compounds without any hit were thinned out: in the full panel of roughly 83,000, 20% have a hit. Activity calls are given as the source filed them. How the source made its calls: active means growth percent below 10; inactive means the rest.
Pick from active, inactive when you respond.

{"compound": "C#CC(C)(O)c1ccc(Cl)cc1 (centres undefined)", "answer label": "inactive"}
{"compound": "O=C(O)c1cc([N+](=O)[O-])ccc1Cl", "answer label": "inactive"}
{"compound": "COC(=O)c1ccc(NC(=O)CCl)cc1", "answer label": "inactive"}

From here, focus on the item given below.
What outcome does the record of this test show for `N#CC(=Nc1cccc(F)c1)C1=C(O)c2ccccc2C1=O` ? inactive

====

System: OVCAR-3 ovarian
experimental details: NCI-60 one-dose screen, 48 h (100 = growth as untreated, 0 = no growth, -100 = all killed)
experimental setup: 10 µM
Procedure: Growth inhibition of the OVCAR-3 human tumor cell line is measured as a screen for anti-cancer activity. Cells are grown in 96 well plates and exposed to the test compound for 48 hours. Compounds are tested at a single concentration, which is 10^-5 M for most compounds. The reported endpoint is percent growth (GI% or GIPRCNT), where numbers from 0 - 100% represent growth inhibition, and numbers from -100% - 0 represent cell death. For example, a value of 40 represents 60% growth inhibition. […]
The panel holds about 83,000 compounds, 20% with a hit somewhere; the sample as a whole holds those more often.
Below, each entry is listed with its recorded growth.
Give the value in % but do not write % after it.

Known results for compounds:
{"compound": "Cc1cc(N)c(S(=O)(=O)O)c(N)c1", "experimental system": "OVCAR-3 ovarian", "units text": "%", "growth": 112}
{"compound": "Cc1cc(NC(=O)CSCC(=O)O)no1", "experimental system": "OVCAR-3 ovarian", "units text": "%", "growth": 123}
{"compound": "COc1ccc(C2OC(N)=C(O)C2=O)cc1OC (stereo unspecified)", "experimental system": "OVCAR-3 ovarian", "units text": "%", "growth": 114}
{"compound": "CCCCNC1(C#N)CCN(Cc2ccccc2)CC1", "experimental system": "OVCAR-3 ovarian", "units text": "%", "growth": 132}
{"compound": "C[C@@H](c1ccccc1)[C@@H](C(=O)O)c1ccccc1", "experimental system": "OVCAR-3 ovarian", "units text": "%", "growth": 104}
{"compound": "NC(=O)NC(=O)c1ccc(Cl)cc1", "experimental system": "OVCAR-3 ovarian", "units text": "%", "growth": 125}
{"compound": "N=c1c(C(=O)OCc2ccccc2)ncc(CCl)n1O", "experimental system": "OVCAR-3 ovarian", "units text": "%", "growth": 99.1}
{"compound": "O=C(OCC(O)C1OC(c2ccccc2)OC(COC(=O)c2ccccc2)C1O)c1ccccc1 (stereo unspecified)", "experimental system": "OVCAR-3 ovarian", "units text": "%", "growth": 118}

Turning to the following compound.
Would you mind telling me what growth value was observed for `O=c1c2ccccc2c(Br)c(Br)c2ccccc12` ? 108

====

Tested on: NCI/ADR-RES ovarian
experimental details: NCI-60 one-dose screen, 48 h
experimental setup: 10 µM
The panel holds about 83,000 compounds, 20% with a hit somewhere; the sample as a whole holds those more often. Activity calls are given as the source filed them. The calls were made as follows: active = growth percent below 10; inactive = the rest.
Pick from true = active, false = inactive when you respond.

The examples below pair each entry with its known result.
{"chem smiles": "CCOC(=O)c1ccc(NC(=S)P(=O)(c2ccccc2)c2ccccc2)cc1", "experimental system": "NCI/ADR-RES ovarian", "answer label": "false"}
{"chem smiles": "Cc1ccc(C(=O)NC2c3ccccc3Oc3ccccc32)cc1", "experimental system": "NCI/ADR-RES ovarian", "answer label": "false"}
{"chem smiles": "Nc1ccc(C(=O)c2ccc(N)c(Br)c2)cc1Br", "experimental system": "NCI/ADR-RES ovarian", "answer label": "true"}
{"chem smiles": "CC(=O)NC(N)=S", "experimental system": "NCI/ADR-RES ovarian", "answer label": "false"}
{"chem smiles": "C/C(=N\\NC(=O)c1ccccc1N)c1ccccc1O", "experimental system": "NCI/ADR-RES ovarian", "answer label": "false"}
{"chem smiles": "Cn1cnc2nc(Cl)nc(Cl)c21", "experimental system": "NCI/ADR-RES ovarian", "answer label": "false"}

From here, focus on the item given below.
What outcome does the record of this test show for `N#Cc1ccc(NC(=O)Nc2cccc(C#N)c2)cc1` ? false

====

Below, each entry is listed with its recorded growth.
Tested on: RPMI-8226 leukemia
experimental details: NCI-60 one-dose screen, 48 h (100 = growth as untreated, 0 = no growth, -100 = all killed)
experimental setup: 10 µM
About 83,000 compounds went through this panel and 20% of them were active in at least one assay; those are over-represented in the sample as a whole.
Give the value in % but do not write % after it.

Known results for compounds:
{"compound": "CC1CCC(C(=O)O)N1 (centres undefined)", "growth [%]": 105}
{"compound": "COc1cccc(/C=N/NC(=S)NC2CC3CCC2C3)c1O (centres undefined)", "growth [%]": 46.8}
{"compound": "S=C1NCc2cncnc2N1", "growth [%]": 102}
{"compound": "CCCC(=O)c1cc(C)ccc1OC", "growth [%]": 110}
{"compound": "CCCCN(CCCC)CCCO", "growth [%]": 158}
{"compound": "COc1ncnc2c1cnn2C", "growth [%]": 107}

Would you mind telling me what growth value was observed for `N=c1c(C(=O)OCc2ccccc2)ncc(CCl)n1O` ? 76.8

Item: O=C(O)CCC(=O)OC(C1CO1)C(OC(=O)CCC(=O)O)C1CO1 (centres undefined) 90.4

Item: `C=CC[N+](C)(C)C` 101

Item: `COc1cc(/C=C/C(=O)c2ccccc2)cc(OC)c1OC` 24.3

Item: `CC(=O)OCC(=O)[C@@]1(O)CC[C@H]2[C@@H]3CC[C@@H]4C[C@H](O)CC[C@]4(C)[C@H]3C(=O)C[C@@]21C` 95.1

Item: `Cc1cc(C(C)(C)C)cc(C)c1Br` 95.1

====

Tested on: DU-145 prostate
experimental details: NCI-60 one-dose screen, 48 h (100 = growth as untreated, 0 = no growth, -100 = all killed)
experimental setup: 10 µM
Experimental: Cells are grown in 96 well plates and exposed to the test compound for 48 hours. Compounds are tested at a single concentration, which is 10^-5 M for most compounds. The reported endpoint is percent growth (GI% or GIPRCNT), where numbers from 0 - 100% represent growth inhibition, and numbers from -100% - 0 represent cell death. For example, a value of 40 represents 60% growth inhibition. A value of 0 means no net growth occurred over the course of the experiment. […]
The panel holds about 83,000 compounds, 20% with a hit somewhere; the sample as a whole holds those more often. The source made the active and inactive calls. Rule for the calls: active = growth percent below 10; inactive = the rest.
Below, each entry is listed with its recorded growth.

{"compound": "CCOC(=O)c1cc(/C=C/c2ccc(Cl)cc2Cl)on1", "observed": "30.6% (inactive)"}
{"compound": "O=C1C=CC2=C3c4cc(O)c(O)cc4CC3(O)COC2=C1O (centres undefined)", "observed": "119% (inactive)"}
{"compound": "N#CCCc1ccc(O)cc1", "observed": "117% (inactive)"}
{"compound": "CC(=O)Nc1cccc(NC(C)=O)n1", "observed": "110% (inactive)"}
{"compound": "c1cc[n+](C2c3ccccc3C([n+]3ccccc3)c3ccccc32)cc1 (centres undefined)", "observed": "91.7% (inactive)"}

Turning to the following compound.
Would you mind telling me what growth value was observed for `CNC(=O)c1ccccc1CC1(O)c2ccccc2Oc2ccccc21` ? 61.3% (inactive)
